ASSAY_COMMENT: Stability in 100 mM phosphate buffer at pH 6 assessed as compound degradation by HPLC
Assay type: physicochemical
MEASURED_PROPERTY: half-life (h)
State the answer as a number, implicitly in h.

If you can, please state the reported half-life value of CCCCCCNC(=O)Oc1ccc(Cl)cc1C(=O)Nc1ccc(Cl)c(Cl)c1 .
118

----------
ASSAY_COMMENT: Stability in 100 mM phosphate buffer at pH 8 assessed as compound degradation by HPLC
Type: physicochemical
MEASURED_PROPERTY: half-life (h)
Note: unit h is implicit; provide only the numeric part.

Suppose we examine the compound CCCCCCNC(=O)Oc1ccc(Cl)cc1C(=O)Nc1ccc(Cl)c(Cl)c1 ; what half-life value has been reported?
5
